# Tested on: COLO 205 colon
# ASSAY SUMMARY: NCI tumour cell line growth inhibition, 48 h
MEASUREMENT KIND: TGI

Completed entries (count: 5):
CN1CCN(CN2C(=O)C3C4C=CC(C3C2=O)C2C(=O)N(CN3CCN(C)CC3)C(=O)C42)CC1 (stereo unspecified) :: > 100 µM
Cc1ccc(Cl)cc1Nc1nc(C(F)(F)F)ccc1C(=O)N1CCN(c2cccc(Cl)c2)CC1 :: > 100 µM
CC(=O)Nc1ccc2cc(C)c(=O)[nH]c2n1 :: > 100 µM
Nc1nc2c(ncn2Cc2ccc(CO)cc2)c(=O)[nH]1 :: > 100 µM
CC(=C\c1ccccc1)/C=C(\C#N)C(N)=O :: > 10 µM

Please state recorded TGI (tested on COLO 205 colon) of `Cc1c(Cl)cccc1N1C(=O)C(Cl)=C(Cl)C1=O`
> 100 µM

* * *

# Tested on: DU-145 prostate
# ASSAY SUMMARY: NCI tumour cell line growth inhibition, 48 h
MEASUREMENT KIND: GI50

Completed entries (count: 3):
Ic1ccc(-n2nnnc2-c2cnoc2-c2ccccc2)cc1 :: 5.99 µM
CCCn1c(N)c(C(=O)N/N=C(/C)c2cc3cccc(OC)c3o2)sc1=S :: 26.4 µM
COc1ccccc1N1CCN(CCCn2c(=O)c3c(OC)nc(C)cc3c(=O)n2-c2ccccc2)CC1 :: > 100 µM

As a next step, examine the compound that follows.
Return reported GI50; argument: `C[C@H]1Oc2cc(cnc2N)-c2c(nn(C)c2C#N)CN(C)C(=O)c2ccc(F)cc21`
26.6 µM

* * *

# System: UACC-257 melanoma
# ASSAY SUMMARY: NCI tumour cell line growth inhibition, 48 h; in the data active = GI50 below about 0.43 µM; inactive = the rest
// one of Yes (active), No (inactive), no free text

Some entries whose results are on file:
N#C/C=C(\c1ccc([N+](=O)[O-])cc1)n1nnc2cc(Cl)c(Cl)cc21 :: No
CCCn1c(N)c(C(=O)N/N=C(/C)c2cc3cccc(OC)c3o2)sc1=S :: No
C[C@H]1Oc2cc(cnc2N)-c2c(nn(C)c2C#N)CN(C)C(=O)c2ccc(F)cc21 :: No
Cc1ccc(Cl)cc1Nc1nc(C(F)(F)F)ccc1C(=O)N1CCN(c2cccc(Cl)c2)CC1 :: No
CC1(C)OCCn2c1nc1c(N3CCOCC3)nc(-c3cnc(N)nc3)nc12 :: Yes

Answer briefly: the call reported for CCN(CC)CCOc1ccc(/C=C2\CC3C4CC=C5C[C@@H](O)CC[C@]5(C)C4CC[C@]3(C)C2=O)cc1OC (stereo partly specified) in this assay.
No

Answer briefly: the call reported for `Cn1cc(C2=C(c3cn(C)c4cc(C(N)=O)ccc34)C(=O)NC2=O)c2ccccc21` in this assay.
No

Answer briefly: the call reported for `COc1cc(CNCCCN2C(=O)c3ccc4c5c(ccc(c35)C2=O)C(=O)N(CCCNCc2cc(OC)c(OC)c(OC)c2)C4=O)cc(OC)c1OC` in this assay.
Yes

Answer briefly: the call reported for N=c1ccn2c(n1)OC1C(O)C(CO)OC12 (stereo unspecified) in this assay.
No

Answer briefly: the call reported for `CCOC(=O)C(=Cc1cccc(Cl)c1)C(=O)OCC` in this assay.
No

Answer briefly: the call reported for CC(C)=CCc1cc(O)cc2c1OC(C=C(C)C)C1=C2C(=O)C2=C(NCCS2(=O)=O)C1=O (stereo unspecified) in this assay.
No

* * *

Below: a set of entries, each annotated with reported TGI.
# Tested on: SR leukemia
# ASSAY SUMMARY: NCI tumour cell line growth inhibition, 48 h

N=c1ccn2c(n1)OC1C(O)C(CO)OC12 (centres undefined) :: > 231 µM

Return reported TGI; argument: `O=C1[C@@H]2C3c4ccccc4C([C@@H]2C(=O)N1c1ccccc1)S3(=O)=O`
> 100 µM

Return reported TGI; argument: `Cc1c(Cl)cccc1N1C(=O)C(Cl)=C(Cl)C1=O`
79.6 µM

Return reported TGI; argument: `COc1ccc(NC(=O)/C(N=O)=C(/C)O)cc1`
> 100 µM

Return reported TGI; argument: `CN(C)c1c([O-])c(=[N+](C)C)c1=O`
> 100 µM

Return reported TGI; argument: `CCOc1ccc2c(c1)[n+]([O-])c(-c1ccccc1Cl)c(N)[n+]2[O-]`
> 100 µM

Return reported TGI; argument: CC(C)(C)[Si](C)(C)OC1/C(=C/C#N)C(n2ccc(=O)[nH]c2=O)OC1CO (centres undefined)
> 100 µM

Return reported TGI; argument: `CSc1ncnc2c1cnn2CCCCO`
> 100 µM

Return reported TGI; argument: `CCSc1[nH]c(Nc2nc(-c3ccccc3)n(-c3ccccc3)n2)c(C(N)=O)c1C(N)=O`
> 10 µM

Return reported TGI; argument: CN1CCN(CN2C(=O)C3C4C=CC(C3C2=O)C2C(=O)N(CN3CCN(C)CC3)C(=O)C42)CC1 (centres undefined)
> 100 µM

Return reported TGI; argument: `COc1ccc2[nH]cc(-c3nc(-c4c[nH]c5ncccc45)cs3)c2c1`
> 100 µM

Return reported TGI; argument: O=C(N/N=C1/C(=O)N(c2ccc(Cl)cc2Cl)C(=O)C(=O)C1c1nc2ccccc2o1)c1ccccc1O (centres undefined)
> 100 µM

Return reported TGI; argument: `C=CCc1cccc(/C=N/NC(=O)CN2CCN(Cc3ccccc3)CC2)c1O`
4.24 µM

Return reported TGI; argument: O=C1NN=C2C=C(c3ccc(Cl)cc3)CC(c3cccc(Cl)c3)C12 (centres undefined)
41.7 µM

* * *

# Tested on: HOP-92 NSCLC
# ASSAY SUMMARY: NCI tumour cell line growth inhibition, 48 h
Below: a set of entries, each annotated with reported TGI.

O=C(NCCCCN=c1cccccc1NCCCCNC(=O)OCc1ccccc1)OCc1ccccc1 :: 20.1 µM

Return reported TGI; argument: `COc1cccc(/C=N/[N-]C(=O)c2ccncc2)c1[O-].[Cu+2].[OH3+]`
> 100 µM

Return reported TGI; argument: `COc1ccc2oc(-c3cccnc3)cc(=O)c2c1`
> 100 µM

* * *

Below: a set of entries, each annotated with reported TGI.
# Test system: OVCAR-8 ovarian
# ASSAY SUMMARY: NCI tumour cell line growth inhibition, 48 h

Completed entries (count: 4):
O=C(NCCCN(CCCCN(CCCNC(=O)C(F)(F)F)CCCc1ccccc1)CCCc1ccccc1)C(F)(F)F :: 3.77 µM
CCc1cccc(C)c1NC(=O)C(=O)Cc1nc2ccccc2o1 :: > 100 µM
CCOC(=O)c1cc(C2(O)CCN(CC(C)CC)C2=O)c(-c2cc(C)no2)[nH]1 (configuration not stated) :: > 100 µM
Nc1nc(N)c(N=Nc2ccc([As](=O)(O)O)cc2)c(=O)[nH]1 :: > 100 µM

Return reported TGI; argument: `CCOc1ccc2nc(S/C(=C/C=C(C#N)C#N)c3ccc(C)cc3)sc2c1`
> 100 µM

Return reported TGI; argument: `CCCNC(=S)/N=C/c1c(O)c2ccccc2[nH]c1=O`
> 100 µM

Return reported TGI; argument: `CC1(C)OCCn2c1nc1c(N3CCOCC3)nc(-c3cnc(N)nc3)nc12`
11.2 µM

Return reported TGI; argument: `CCO/C=N/NC(=O)CSc1nc2ccc(I)cc2c(=O)n1Cc1ccccc1`
> 100 µM

Return reported TGI; argument: `CCCCCCC[CH2][Sn]1([CH2]CCCCCCC)[O]C(=O)c2cccnc2[S]1`
> 100 µM

Return reported TGI; argument: `Cc1ccc(NC(=S)NNC(=O)c2cc(-c3ccccc3)nc3ccccc23)cc1`
47.8 µM

Return reported TGI; argument: C=CCCCCCCCCCCC1(O)C=CC2=[N+](CCCCCN=C(N)N)CCCN21 (configuration not stated)
26.1 µM

* * *

# Tested on: NCI-H226 lung
# ASSAY SUMMARY: NCI tumour cell line growth inhibition, 48 h
MEASUREMENT KIND: TGI

Return reported TGI; argument: COc1ccc(C(OCC2OC(n3cc(C)c(=O)[nH]c3=O)CC2n2cc(Cn3cc(Br)c(=O)[nH]c3=O)nn2)(c2ccccc2)c2ccccc2)cc1 (stereo not drawn)
> 100 µM

Return reported TGI; argument: `O=S(=O)(O)c1ccc(N=Nc2ccc(N=Nc3c(O)ccc4ccccc34)cc2)cc1`
> 100 µM

Return reported TGI; argument: `S=c1[nH]n2c(COc3cccc(OCc4nnc5sc(=S)[nH]n45)c3)nnc2s1`
> 100 µM

Return reported TGI; argument: `Nc1nc2c(ncn2Cc2ccc(CO)cc2)c(=O)[nH]1`
> 100 µM

Return reported TGI; argument: `CC(=C\c1ccccc1)/C=C(\C#N)C(N)=O`
> 10 µM

Return reported TGI; argument: `O=C1[C@@H]2C3c4ccccc4C([C@@H]2C(=O)N1c1ccccc1)S3(=O)=O`
> 100 µM

Return reported TGI; argument: `CC(=O)Nc1ccc(-c2nc3ccccc3s2)cc1`
> 100 µM

Return reported TGI; argument: `COc1ccc(-c2oc(=O)ccc2-c2cc(OC)c(OC)c(OC)c2)cc1F`
> 100 µM

Return reported TGI; argument: `CCc1nc2ccc(N=NN(C)C)cc2[nH]1`
> 100 µM

Return reported TGI; argument: `Cc1ccc(NC(=S)NNC(=O)c2cc(-c3ccccc3)nc3ccccc23)cc1`
39.7 µM
